assay.target: T1, human Trop-2 expressed on cell surface (human, UniProt P09758 27-323)
T1 sequence (looked up): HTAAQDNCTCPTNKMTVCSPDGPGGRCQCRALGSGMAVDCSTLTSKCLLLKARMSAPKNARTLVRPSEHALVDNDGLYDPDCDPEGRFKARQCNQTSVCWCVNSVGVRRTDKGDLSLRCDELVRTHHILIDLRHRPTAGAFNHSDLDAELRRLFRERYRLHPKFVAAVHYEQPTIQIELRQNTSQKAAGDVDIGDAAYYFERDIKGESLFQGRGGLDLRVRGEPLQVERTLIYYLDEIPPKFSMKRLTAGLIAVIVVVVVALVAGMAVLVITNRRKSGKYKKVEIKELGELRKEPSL
method.notes: cell-based or functional assay
Property: Internalization %, MDA-MB-231, 0.25 µg/ml, 2 h; scope: individual binders
Value expressed in %; do not type the unit.

{"binder": "62E3 (antibody, V domains shown, Rabbit-derived clone; LEM construct: VH + rabbit IgG CH1 + human IgG1 CH2-CH3) VH: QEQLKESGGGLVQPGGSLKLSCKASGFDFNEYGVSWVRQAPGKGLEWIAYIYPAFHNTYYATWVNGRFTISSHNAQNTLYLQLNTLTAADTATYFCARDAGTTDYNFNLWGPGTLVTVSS VL: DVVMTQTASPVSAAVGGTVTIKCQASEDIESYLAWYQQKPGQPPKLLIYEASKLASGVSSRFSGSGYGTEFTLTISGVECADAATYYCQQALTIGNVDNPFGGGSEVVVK", "unit.string": "%", "data.value": 41}

## Task Specify Internalization %, MDA-MB-231, 0.25 µg/ml, 2 h for 5D4-1 (antibody, V domains shown) VH: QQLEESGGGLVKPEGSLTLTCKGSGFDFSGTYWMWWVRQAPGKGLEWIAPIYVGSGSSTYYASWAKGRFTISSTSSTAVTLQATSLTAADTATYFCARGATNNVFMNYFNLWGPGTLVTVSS VL: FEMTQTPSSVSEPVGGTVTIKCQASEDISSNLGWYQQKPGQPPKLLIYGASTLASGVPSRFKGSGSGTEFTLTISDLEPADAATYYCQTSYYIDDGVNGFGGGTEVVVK and stop.
## Result 58

## Task Specify Internalization %, MDA-MB-231, 0.25 µg/ml, 2 h for 5D4-2 (antibody, V domains shown) VH: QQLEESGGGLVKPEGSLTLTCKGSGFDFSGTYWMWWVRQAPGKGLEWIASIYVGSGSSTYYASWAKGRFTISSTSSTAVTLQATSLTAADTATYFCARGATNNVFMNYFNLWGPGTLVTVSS VL: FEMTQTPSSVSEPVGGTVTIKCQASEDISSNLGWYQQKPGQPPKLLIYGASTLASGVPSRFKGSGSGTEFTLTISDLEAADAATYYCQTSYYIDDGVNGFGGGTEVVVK and stop.
## Result 55
